- Organism: Rattus norvegicus
- Assay overview: Activity relative to fenclofenac determined in adjuvant arthritis test
- Format: functional
Entry flag: 1 if Relative potency reaches 1; 0 if it does not.

Exercise: Exam item: decide whether the reported Relative potency for Clc1ccc2c(c1)CCNc1cc(Cl)cc(Cl)c1O2 is at least 1.
Key: 0

Exercise: Exam item: decide whether the reported Relative potency for Nc1cc(Br)cc(Br)c1Oc1ccccc1CC(=O)O is at least 1.
Key: 1

Exercise: Exam item: decide whether the reported Relative potency for Cc1c(Cl)ccc(N)c1Oc1ccccc1CC(=O)O is at least 1.
Key: 1

Exercise: Exam item: decide whether the reported Relative potency for Clc1cc(Cl)c2c(c1)NCCc1ccccc1O2 is at least 1.
Key: 1

Exercise: Exam item: decide whether the reported Relative potency for O=C(Cc1ccccc1Oc1c(Cl)cccc1[N+](=O)[O-])OC1OC(=O)c2ccccc21 (stereo unspecified) is at least 1.
Key: 0
